// provenance: paper PMC12416549

Target: T1, TNFR1 (Homo sapiens, UniProt P19438)
T1 chain: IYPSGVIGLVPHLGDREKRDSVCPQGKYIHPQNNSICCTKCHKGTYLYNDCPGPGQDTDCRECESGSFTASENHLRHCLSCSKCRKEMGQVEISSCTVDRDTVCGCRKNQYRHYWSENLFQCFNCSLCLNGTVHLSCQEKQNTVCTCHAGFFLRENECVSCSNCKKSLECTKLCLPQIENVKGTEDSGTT
Test: yeast display SC50
reported metric: apparent Kd (screen) (nM)

* A105L (designed binder) MTLQELLREEALRRAEAEAFRYALELLAEKFPEQKEYLLDLAEEIESQIRSLSGVDVEDVRKFLDKEWAWVKELLAEHPAELAEVEAARAARLAELRAEVEAKVLA | 0.653
* L75T (designed binder) MTLQELLREEALRRAEAEAFRYALELLAEKFPEQKEYLLDLAEEIESQIRSLSGVDVEDVRKFLDKEWAWVKELTAEHPAELAEVEAARAARLAELRAEVEAKVAA | 0.869
* E9A (designed binder) MTLQELLRAEALRRAEAEAFRYALELLAEKFPEQKEYLLDLAEEIESQIRSLSGVDVEDVRKFLDKEWAWVKELLAEHPAELAEVEAARAARLAELRAEVEAKVAA | 1.4
* A102S (designed binder) MTLQELLREEALRRAEAEAFRYALELLAEKFPEQKEYLLDLAEEIESQIRSLSGVDVEDVRKFLDKEWAWVKELLAEHPAELAEVEAARAARLAELRAEVESKVAA | 0.79
* L26E (designed binder) MTLQELLREEALRRAEAEAFRYALEELAEKFPEQKEYLLDLAEEIESQIRSLSGVDVEDVRKFLDKEWAWVKELLAEHPAELAEVEAARAARLAELRAEVEAKVAA | 0.79
* E46V (designed binder) MTLQELLREEALRRAEAEAFRYALELLAEKFPEQKEYLLDLAEEIVSQIRSLSGVDVEDVRKFLDKEWAWVKELLAEHPAELAEVEAARAARLAELRAEVEAKVAA | 0.49

(1) E10R (designed binder) MTLQELLRERALRRAEAEAFRYALELLAEKFPEQKEYLLDLAEEIESQIRSLSGVDVEDVRKFLDKEWAWVKELLAEHPAELAEVEAARAARLAELRAEVEAKVAA
(2) V57Q (designed binder) MTLQELLREEALRRAEAEAFRYALELLAEKFPEQKEYLLDLAEEIESQIRSLSGVDQEDVRKFLDKEWAWVKELLAEHPAELAEVEAARAARLAELRAEVEAKVAA
Request: Given the listed items, does 1 or 2 have the lesser reported apparent Kd (screen)? Return value: the label identifying the chosen record.
Response: 2
(2: 0.869 nM, 1: 10.4 nM)

(A) K30W (designed binder) MTLQELLREEALRRAEAEAFRYALELLAEWFPEQKEYLLDLAEEIESQIRSLSGVDVEDVRKFLDKEWAWVKELLAEHPAELAEVEAARAARLAELRAEVEAKVAA
(B) E101Y (designed binder) MTLQELLREEALRRAEAEAFRYALELLAEKFPEQKEYLLDLAEEIESQIRSLSGVDVEDVRKFLDKEWAWVKELLAEHPAELAEVEAARAARLAELRAEVYAKVAA
Request: Please indicate which item has the smaller measured apparent Kd (screen): A versus B // output: label of the selected item
Response: B
